FYI, the data here is from patent US11964938B2.

Target Under Test: human GPR40 receptor (Homo sapiens)
Construct: host or cells: CHO-K1 (co-expressing aequorin)
Experiment Notes: Analysis of receptor activation - calcium ions concentration measurement (aequorin luminescence)
Format: cell-based
Cond: enhancement or decrease of activity in relation to reference TAK-875, from EC50 values
Assay Readout: % PTAK-875

Use these answered entries as a reference point.
Molecule | Target Under Test | % PTAK-875
CC#C[C@@H](CC(=O)O)c1ccc(OCCCC)cc1 | human GPR40 receptor (Homo sapiens) | A (>120% PTAK-875)
CC#C[C@@H](CC(=O)O)c1ccc(OCCC)cc1 | human GPR40 receptor (Homo sapiens) | D (21-50% PTAK-875)
C=C(C)CCOc1ccc([C@@H](C#CC)CC(=O)O)cc1 | human GPR40 receptor (Homo sapiens) | A (>120% PTAK-875)
CC#C[C@@H](CC(=O)O)c1ccc(OCC#CCC)cc1 | human GPR40 receptor (Homo sapiens) | C (51-80% PTAK-875)

## Task I am curious: what % PTAK-875 value has been reported for `CC#C[C@@H](CC(=O)O)c1ccc(OCCCCCCC)cc1` ?
## Result A (>120% PTAK-875)

## Task I am curious: what % PTAK-875 value has been reported for Cc1cc(OCCCS(C)(=O)=O)cc(C)c1-c1cccc(COc2ccc3c(c2)OC[C@H]3CC(=O)O)c1 [Example R1, reference compound] ?
## Result B (81-120% PTAK-875)

## Task I am curious: what % PTAK-875 value has been reported for CC#CC(CC(=O)O)c1ccc(OC/C=C(\C)CC/C=C(\C)CCC=C(C)C)cc1 (racemic) ?
## Result D (21-50% PTAK-875)

## Task I am curious: what % PTAK-875 value has been reported for `CC#C[C@@H](CC(=O)O)c1ccc(OC/C=C/CCC)cc1` ?
## Result A (>120% PTAK-875)

## Task I am curious: what % PTAK-875 value has been reported for `C=CCCCOc1ccc([C@@H](C#CC)CC(=O)O)cc1` ?
## Result B (81-120% PTAK-875)

====

Target Under Test: human GPR40 receptor (Homo sapiens, UniProt O14842)
Construct: host or cells: CHO-K1 (co-expressing aequorin)
Sequence (O14842 whole entry): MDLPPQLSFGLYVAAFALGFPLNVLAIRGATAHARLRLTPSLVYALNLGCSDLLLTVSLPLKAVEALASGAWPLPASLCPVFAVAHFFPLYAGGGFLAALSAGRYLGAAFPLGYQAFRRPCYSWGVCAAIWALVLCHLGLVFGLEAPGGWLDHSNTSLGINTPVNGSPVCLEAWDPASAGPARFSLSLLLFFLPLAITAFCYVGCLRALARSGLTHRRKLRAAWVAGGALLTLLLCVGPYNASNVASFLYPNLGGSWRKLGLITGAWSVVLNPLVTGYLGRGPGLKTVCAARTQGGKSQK
Experiment Notes: Analysis of receptor activation - calcium ions concentration measurement (aequorin luminescence)
Type: cell-based
Cond: enhancement or decrease of activity in relation to reference TAK-875, from EC50 values

Molecule | % PTAK-875
CC#C[C@@H](CC(=O)O)c1ccc(OCCCCC(F)(F)F)cc1 [Example F40] | B (81-120% PTAK-875)
CC#C[C@@H](CC(=O)O)c1ccc(OCCCC(F)(F)F)cc1 [Example F39] | B (81-120% PTAK-875)

====

Target Under Test: OAT1 (Homo sapiens)
Construct: host or cells: HEK293
Sequence (Q4U2R8 1-563): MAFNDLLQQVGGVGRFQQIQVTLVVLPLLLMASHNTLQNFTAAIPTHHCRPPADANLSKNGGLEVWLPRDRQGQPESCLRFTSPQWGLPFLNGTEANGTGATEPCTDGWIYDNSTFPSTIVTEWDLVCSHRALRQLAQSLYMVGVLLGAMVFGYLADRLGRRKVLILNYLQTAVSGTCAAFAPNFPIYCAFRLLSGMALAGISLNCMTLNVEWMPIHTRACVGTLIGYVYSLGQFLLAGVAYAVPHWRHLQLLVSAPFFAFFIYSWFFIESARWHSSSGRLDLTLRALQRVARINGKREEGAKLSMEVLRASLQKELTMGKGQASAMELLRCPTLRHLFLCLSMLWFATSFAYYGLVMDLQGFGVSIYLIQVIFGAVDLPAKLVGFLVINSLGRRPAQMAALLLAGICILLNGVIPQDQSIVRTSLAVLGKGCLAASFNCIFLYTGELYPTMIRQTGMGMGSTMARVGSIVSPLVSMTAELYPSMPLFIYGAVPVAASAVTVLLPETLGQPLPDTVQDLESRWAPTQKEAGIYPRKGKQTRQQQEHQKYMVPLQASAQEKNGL
Experiment Notes: Uptake transporter inhibition assay, OAT1
Format: cell-based
Cond: HEK293 cells overexpressing transporter
Where a name gives a salt, the structure may show the parent alone.
The entries below come with measured IC50 values attached.
Write it as a number; the unit µM goes unstated.

Molecule | Assay Readout | Value Observed
Cc1cc(OCCCS(C)(=O)=O)cc(C)c1-c1cccc(COc2ccc3c(c2)OC[C@H]3CC(=O)O)c1 [Example R1, reference compound] | IC50 | 34.8

Could you now look at the following molecule, please?
## Task I am curious: what IC50 value has been reported for CC#C[C@@H](CC(=O)O)c1ccc(OCC(C)=C(C)C)cc1 [Example S1, calcium salt] ?
## Result 245

====

Target Under Test: OATP1B1 (Homo sapiens)
Construct: host or cells: HEK293
Sequence (Q9Y6L6 whole entry): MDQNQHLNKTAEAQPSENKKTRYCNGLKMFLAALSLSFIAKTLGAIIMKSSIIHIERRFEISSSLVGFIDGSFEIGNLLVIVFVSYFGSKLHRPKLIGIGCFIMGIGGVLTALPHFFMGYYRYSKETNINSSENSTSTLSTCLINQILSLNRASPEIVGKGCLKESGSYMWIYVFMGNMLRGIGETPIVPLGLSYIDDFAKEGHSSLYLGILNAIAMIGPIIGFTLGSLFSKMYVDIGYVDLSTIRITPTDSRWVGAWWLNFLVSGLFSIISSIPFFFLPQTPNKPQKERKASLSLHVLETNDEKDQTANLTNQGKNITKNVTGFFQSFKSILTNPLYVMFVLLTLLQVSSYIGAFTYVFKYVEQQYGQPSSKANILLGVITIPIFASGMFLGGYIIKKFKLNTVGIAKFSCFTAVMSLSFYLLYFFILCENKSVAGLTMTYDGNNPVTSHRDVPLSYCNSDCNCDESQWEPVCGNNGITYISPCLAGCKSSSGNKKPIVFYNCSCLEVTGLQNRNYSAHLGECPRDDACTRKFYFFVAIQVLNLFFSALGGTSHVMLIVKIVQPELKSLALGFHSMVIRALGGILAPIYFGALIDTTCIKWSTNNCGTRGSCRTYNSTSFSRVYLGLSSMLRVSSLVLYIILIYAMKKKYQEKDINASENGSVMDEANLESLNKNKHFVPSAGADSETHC
Experiment Notes: Uptake transporter inhibition assay, OATP1B1
Format: cell-based
Cond: HEK293 cells overexpressing transporter
Structures can show the parent of a compound that is named as a salt.
The entries below come with measured IC50 values attached.
Write it as a number; the unit µM goes unstated.

Molecule | Assay Readout | Unit Symbol | Value Observed
Cc1cc(OCCCS(C)(=O)=O)cc(C)c1-c1cccc(COc2ccc3c(c2)OC[C@H]3CC(=O)O)c1 [Example R1, reference compound] | IC50 | µM | 0.49

Could you now look at the following molecule, please?
## Task I am curious: what IC50 value has been reported for CC#C[C@@H](CC(=O)O)c1ccc(OCC(C)=C(C)C)cc1 [Example S1, calcium salt] ?
## Result 17.9

====

Target Under Test: OATP1B3 (Homo sapiens)
Construct: host or cells: HEK293
Sequence (Q9NPD5 1-702): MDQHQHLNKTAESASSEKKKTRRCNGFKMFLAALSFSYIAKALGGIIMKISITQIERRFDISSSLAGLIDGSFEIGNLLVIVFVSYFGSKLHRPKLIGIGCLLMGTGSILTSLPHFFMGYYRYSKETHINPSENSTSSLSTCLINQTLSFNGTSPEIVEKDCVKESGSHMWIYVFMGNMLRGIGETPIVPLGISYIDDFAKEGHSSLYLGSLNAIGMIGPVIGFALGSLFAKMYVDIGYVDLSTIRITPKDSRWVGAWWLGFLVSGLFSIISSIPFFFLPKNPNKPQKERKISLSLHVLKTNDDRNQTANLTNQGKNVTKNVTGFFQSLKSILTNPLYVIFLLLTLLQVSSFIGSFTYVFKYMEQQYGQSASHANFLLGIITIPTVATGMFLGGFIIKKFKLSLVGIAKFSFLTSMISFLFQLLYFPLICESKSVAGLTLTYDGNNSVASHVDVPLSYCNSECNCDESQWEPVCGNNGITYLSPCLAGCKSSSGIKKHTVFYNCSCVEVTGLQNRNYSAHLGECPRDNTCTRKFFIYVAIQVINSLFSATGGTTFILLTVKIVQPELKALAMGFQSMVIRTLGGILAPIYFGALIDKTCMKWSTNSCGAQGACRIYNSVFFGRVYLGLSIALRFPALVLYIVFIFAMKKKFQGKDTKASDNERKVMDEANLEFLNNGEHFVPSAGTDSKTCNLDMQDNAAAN
Experiment Notes: Uptake transporter inhibition assay, OATP1B3
Type: cell-based
Cond: HEK293 cells overexpressing transporter
Where a name gives a salt, the structure may show the parent alone.
The entries below come with measured pIC50 values attached.
Bear in mind: pIC50 is minus log10 of a mol/L concentration; give just that figure.

Compound | Assay Readout | Value Observed
Cc1cc(OCCCS(C)(=O)=O)cc(C)c1-c1cccc(COc2ccc3c(c2)OC[C@H]3CC(=O)O)c1 [Example R1, reference compound] | pIC50 | 5.46

Could you now look at the following compound, please?
## Task I am curious: what pIC50 value has been reported for CC#C[C@@H](CC(=O)O)c1ccc(OCC(C)=C(C)C)cc1 [Example S1, calcium salt] ?
## Result 4.37

====

Target Under Test: OATP1A2 (Homo sapiens)
Construct: host or cells: HEK293
Sequence (P46721 1-670): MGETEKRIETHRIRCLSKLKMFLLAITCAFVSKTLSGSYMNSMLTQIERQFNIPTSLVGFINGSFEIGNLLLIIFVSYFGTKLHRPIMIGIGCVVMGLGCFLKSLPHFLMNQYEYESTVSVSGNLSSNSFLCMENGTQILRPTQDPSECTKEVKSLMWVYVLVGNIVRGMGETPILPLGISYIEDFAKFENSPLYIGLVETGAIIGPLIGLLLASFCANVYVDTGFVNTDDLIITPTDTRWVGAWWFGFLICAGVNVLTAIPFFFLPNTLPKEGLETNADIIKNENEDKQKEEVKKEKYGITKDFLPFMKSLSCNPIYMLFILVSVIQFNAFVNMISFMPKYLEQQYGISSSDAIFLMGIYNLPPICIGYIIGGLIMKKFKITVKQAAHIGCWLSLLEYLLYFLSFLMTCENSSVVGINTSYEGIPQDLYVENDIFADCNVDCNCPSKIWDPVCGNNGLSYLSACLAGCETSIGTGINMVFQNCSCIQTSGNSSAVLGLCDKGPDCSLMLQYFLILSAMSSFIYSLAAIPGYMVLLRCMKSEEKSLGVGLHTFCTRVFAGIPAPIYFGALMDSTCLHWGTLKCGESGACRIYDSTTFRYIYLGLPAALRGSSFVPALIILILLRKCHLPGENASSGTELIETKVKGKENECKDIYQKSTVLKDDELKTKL
Experiment Notes: Uptake transporter inhibition assay, OATP1A2
Assay type: cell-based
Cond: HEK293 cells overexpressing transporter
Structures can show the parent of a compound that is named as a salt.
Assay Readout: pIC50
Bear in mind: pIC50 is minus log10 of a mol/L concentration; give just that figure.

Compound | pIC50
Cc1cc(OCCCS(C)(=O)=O)cc(C)c1-c1cccc(COc2ccc3c(c2)OC[C@H]3CC(=O)O)c1 [Example R1, reference compound] | 4.97

Could you now look at the following compound, please?
## Task I am curious: what pIC50 value has been reported for CC#C[C@@H](CC(=O)O)c1ccc(OCC(C)=C(C)C)cc1 [Example S1, calcium salt] ?
## Result 3.93
